Would you kindly list Plat for each of these molecules?
# Organism: Rattus norvegicus
# protocolText: Open TG-GATES - Regimen: Single
# Format: toxicity, organism-based, Sprague-Dawley
# Design: regimen Single, gender Male, age 6 weeks
# studyConditions: in vivo, po, 0 mg/kg, 6 h, tissue Blood, route gavage, dose level Control
Please reply with the bare figure in x10_4/uL and do not write the unit itself.

Input line: Any idea what its Plat is? The molecule is Cn1c(=O)c2[nH]cnc2n(C)c1=O.O
Output line: 118.7

Input line: Any idea what its Plat is? The molecule is CC(=O)Oc1ccccc1C(=O)O
Output line: 131.2

Input line: Any idea what its Plat is? The molecule is CSc1ccc2c(c1)N(CCC1CCCCN1C)c1ccccc1S2 (configuration not stated)
Output line: 98.4

Input line: Any idea what its Plat is? The molecule is NC(=O)N1c2ccccc2C=Cc2ccccc21 [CARBAMAZEPINE]
Output line: 115.6

Input line: Any idea what its Plat is? The molecule is C[C@H](CS)C(=O)N1CCC[C@H]1C(=O)O
Output line: 118.9

Input line: Any idea what its Plat is? The molecule is CCc1cc(C(N)=S)ccn1 [ETHIONAMIDE]
Output line: 124.1

Input line: Any idea what its Plat is? The molecule is CN(C)CCC=C1c2ccccc2CCc2ccccc21
Output line: 119.8

Input line: Any idea what its Plat is? The molecule is Clc1ccccc1CN1CCc2sccc2C1
Output line: 123.6

Input line: Any idea what its Plat is? The molecule is NC(=O)N/N=C/c1ccc([N+](=O)[O-])o1
Output line: 118.4

Input line: Any idea what its Plat is? The molecule is O=C(O)c1cn(C2CC2)c2cc(N3CCNCC3)c(F)cc2c1=O
Output line: 103

Input line: Any idea what its Plat is? The molecule is O=C(O)c1cc(/N=N/c2ccc(S(=O)(=O)Nc3ccccn3)cc2)ccc1O
Output line: 114.7

Input line: Any idea what its Plat is? The molecule is COc1ccc(Cc2nccc3cc(OC)c(OC)cc23)cc1OC
Output line: 116.4
